# SYSTEM NAME: rat isoform of TRPM8 channels (Rattus norvegicus)
# Construct: expressed in transfected cells
# Sequence (Q8R455 whole entry, canonical isoform): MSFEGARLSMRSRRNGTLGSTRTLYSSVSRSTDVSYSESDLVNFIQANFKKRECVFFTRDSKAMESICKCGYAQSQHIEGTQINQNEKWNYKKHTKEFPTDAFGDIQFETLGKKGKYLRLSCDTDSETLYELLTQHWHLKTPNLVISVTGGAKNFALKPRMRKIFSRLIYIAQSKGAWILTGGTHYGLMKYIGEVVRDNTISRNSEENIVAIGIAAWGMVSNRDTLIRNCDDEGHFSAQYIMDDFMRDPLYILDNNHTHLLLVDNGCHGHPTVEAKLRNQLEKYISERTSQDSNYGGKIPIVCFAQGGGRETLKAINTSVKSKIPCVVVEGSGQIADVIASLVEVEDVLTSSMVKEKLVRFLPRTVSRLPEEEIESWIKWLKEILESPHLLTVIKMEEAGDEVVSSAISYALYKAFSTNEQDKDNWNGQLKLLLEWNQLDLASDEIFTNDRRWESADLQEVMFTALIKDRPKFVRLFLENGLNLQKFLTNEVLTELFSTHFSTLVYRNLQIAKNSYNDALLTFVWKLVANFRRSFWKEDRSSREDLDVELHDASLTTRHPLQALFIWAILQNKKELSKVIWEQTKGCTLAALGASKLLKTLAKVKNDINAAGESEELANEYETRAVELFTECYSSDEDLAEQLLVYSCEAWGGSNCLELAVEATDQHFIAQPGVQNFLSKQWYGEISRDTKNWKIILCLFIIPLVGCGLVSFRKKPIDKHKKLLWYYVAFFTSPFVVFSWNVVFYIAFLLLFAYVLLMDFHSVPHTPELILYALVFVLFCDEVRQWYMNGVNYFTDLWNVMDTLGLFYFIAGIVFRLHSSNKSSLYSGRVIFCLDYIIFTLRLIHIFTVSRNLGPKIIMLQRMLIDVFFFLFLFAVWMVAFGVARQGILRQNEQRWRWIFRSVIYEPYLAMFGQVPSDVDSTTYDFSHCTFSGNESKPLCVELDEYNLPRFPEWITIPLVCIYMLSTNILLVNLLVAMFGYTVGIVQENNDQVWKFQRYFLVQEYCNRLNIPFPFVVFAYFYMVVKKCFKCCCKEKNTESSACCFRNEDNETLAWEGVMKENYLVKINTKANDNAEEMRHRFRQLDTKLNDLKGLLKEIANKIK
# TEST: Ca2+ fluorimetric assay, menthol-activated channel
# Type: cell-based
# ASSAY CONDITIONS: HEK-293 cells stably expressing rat TRPM8, menthol as agonist; mean ± SD of at least three measurements; read-out: IC50
pIC50: −log10 of the molar value.
OBSERVATION TYPE: pIC50

Some solved cases for reference:
Record O=C(O)CC[C@H]1N[C@H](C(=O)NCc2ccc(F)cc2)Cc2c1[nH]c1ccccc21 [12a] ; system rat isoform of TRPM8 channels (Rattus norvegicus); pIC50 = 5.30

Record O=C1[C@H]2Cc3c([nH]c4ccccc34)[C@H](c3ccc(F)cc3)N2C(=O)N1c1ccccc1F [37a′] ; system rat isoform of TRPM8 channels (Rattus norvegicus); pIC50 = 5.29

1: Cc1cccc(COc2ccccc2C(=O)N(CCCN)Cc2cccs2)c1 [AMTB, reference compound]
2: O=C1[C@@H]2Cc3c([nH]c4ccccc34)CN2C(=O)N1Cc1ccc(F)cc1
Q: Parameter metric = pIC50. Return the lower-valued option from 1 and 2 . Response format: the label of the selected entry.
Ans: 2
